target of assay: CDK4 (Homo sapiens, UniProt P11802+Q16531)
Sequence (P11802 2-303 limits assumed): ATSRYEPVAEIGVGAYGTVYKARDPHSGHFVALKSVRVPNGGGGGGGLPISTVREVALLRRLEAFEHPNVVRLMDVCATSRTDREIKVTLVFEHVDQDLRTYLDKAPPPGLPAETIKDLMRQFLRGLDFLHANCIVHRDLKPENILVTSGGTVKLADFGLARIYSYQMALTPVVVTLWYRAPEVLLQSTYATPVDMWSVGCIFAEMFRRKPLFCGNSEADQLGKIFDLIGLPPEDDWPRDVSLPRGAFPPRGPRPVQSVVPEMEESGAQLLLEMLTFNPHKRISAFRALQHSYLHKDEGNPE
Sequence (P24385 whole entry partner): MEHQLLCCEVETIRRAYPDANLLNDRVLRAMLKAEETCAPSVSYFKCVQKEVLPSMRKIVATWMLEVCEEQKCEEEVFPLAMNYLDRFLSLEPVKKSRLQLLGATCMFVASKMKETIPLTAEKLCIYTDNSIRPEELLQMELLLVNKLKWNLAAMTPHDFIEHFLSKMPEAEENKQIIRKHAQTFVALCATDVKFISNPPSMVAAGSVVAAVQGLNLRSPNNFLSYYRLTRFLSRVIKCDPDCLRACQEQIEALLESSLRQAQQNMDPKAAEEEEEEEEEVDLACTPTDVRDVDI
Sequence (Q16531 2-1140 limits assumed): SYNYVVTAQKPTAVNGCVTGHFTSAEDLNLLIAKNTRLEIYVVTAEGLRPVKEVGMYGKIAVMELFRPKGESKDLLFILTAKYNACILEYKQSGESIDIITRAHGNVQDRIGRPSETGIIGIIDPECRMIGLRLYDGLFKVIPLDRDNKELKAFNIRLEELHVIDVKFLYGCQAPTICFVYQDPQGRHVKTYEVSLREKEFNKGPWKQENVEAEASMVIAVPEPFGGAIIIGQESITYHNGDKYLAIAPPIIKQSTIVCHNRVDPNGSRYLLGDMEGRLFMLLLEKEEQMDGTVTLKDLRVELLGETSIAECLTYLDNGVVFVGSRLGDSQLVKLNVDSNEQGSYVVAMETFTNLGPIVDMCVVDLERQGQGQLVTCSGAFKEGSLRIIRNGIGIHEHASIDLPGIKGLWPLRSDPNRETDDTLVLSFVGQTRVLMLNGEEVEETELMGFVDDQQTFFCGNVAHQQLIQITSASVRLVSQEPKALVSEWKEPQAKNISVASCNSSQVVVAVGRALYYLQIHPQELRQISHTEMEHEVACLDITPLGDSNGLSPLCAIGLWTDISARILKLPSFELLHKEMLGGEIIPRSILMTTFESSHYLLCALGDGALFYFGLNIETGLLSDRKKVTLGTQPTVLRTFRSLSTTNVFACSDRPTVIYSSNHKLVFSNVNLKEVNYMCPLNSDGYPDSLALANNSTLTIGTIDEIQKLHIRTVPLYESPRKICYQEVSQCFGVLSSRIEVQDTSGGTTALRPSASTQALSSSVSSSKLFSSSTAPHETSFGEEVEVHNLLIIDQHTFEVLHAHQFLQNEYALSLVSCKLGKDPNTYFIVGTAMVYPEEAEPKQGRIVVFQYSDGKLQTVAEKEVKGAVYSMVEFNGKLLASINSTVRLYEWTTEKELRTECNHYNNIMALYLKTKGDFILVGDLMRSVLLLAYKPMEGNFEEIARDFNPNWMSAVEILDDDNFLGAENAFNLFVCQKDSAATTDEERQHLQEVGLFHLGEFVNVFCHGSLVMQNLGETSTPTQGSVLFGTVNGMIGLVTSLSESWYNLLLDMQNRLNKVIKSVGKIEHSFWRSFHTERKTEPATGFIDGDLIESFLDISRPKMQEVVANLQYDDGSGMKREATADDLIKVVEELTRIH
run description: CDK4 percentage degradation in Calu-1 cells (Table 6)
Assay type: cell-based
Parameters: Cells that express cyclin D1-3 and CDK4/6 proteins were treated with heterobifunctional compounds; endogenous in cells; host or cells: Calu-1
test parameters: 40 nM, 16 hours
metric name: inhibition at 0.04 µM

These recorded examples may help you get a feel for the data.
{"compound": "CNc1ccc(C(=O)Nc2ccc(N(C)C)nn2)c(NC2CC(CCNC(=O)N3CCN(c4ccc(Nc5ncc6c(C)c(C(C)=O)c(=O)n(C7CCCC7)c6n5)nc4)CC3)C2)n1 (centres unmarked)", "target of assay": "CDK4 (Homo sapiens, UniProt P11802+Q16531)", "inhibition at 0.04 µM": "50 to 80%"}
{"compound": "CNc1ccc(C(=O)Nc2cccc(N(C)C)n2)c(NC2CC3(CC(NC(=O)CN4CCN(c5ccc(Nc6ncc7c(C)c(C(C)=O)c(=O)n(C8CCCC8)c7n6)nc5)CC4)C3)C2)n1 (centres unmarked)", "target of assay": "CDK4 (Homo sapiens, UniProt P11802+Q16531)", "inhibition at 0.04 µM": "30 to 50%"}
{"compound": "CNc1ccc(C(=O)Nc2ccon2)c(NC2CC3(CC(NC(=O)CN4CCN(c5ccc(Nc6ncc7c(C)c(C(C)=O)c(=O)n(C8CCCC8)c7n6)nc5)CC4)C3)C2)n1 (centres unmarked)", "target of assay": "CDK4 (Homo sapiens, UniProt P11802+Q16531)", "inhibition at 0.04 µM": "< 30%"}

Lookup result for CNc1ccc(C(=O)Nc2ccc(N(C)C)nn2)c(NC2CC3(CC(CC(=O)N4CCN(c5ccc(Nc6ncc7c(C)c(C(C)=O)c(=O)n(C8CCCC8)c7n6)nc5)CC4)C3)C2)n1 (centres unmarked) ; measured inhibition at 0.04 µM: 30 to 50%

// CC(=O)c1c(C)c2cnc(Nc3ccc(N4CCN(CC(=O)NCCC5CC(Nc6cc(F)ccc6C(=O)Nc6ccc(N(C)C)nn6)C5)CC4)cn3)nc2n(C2CCCC2)c1=O (centres unmarked) : inhibition at 0.04 µM value = 30 to 50%

* * *

target of assay: CDK4 (Homo sapiens, UniProt P11802+Q16531)
run description: CDK4 percentage degradation in Calu-1 cells (Table 6)
Type: cell-based
Parameters: Cells that express cyclin D1-3 and CDK4/6 proteins were treated with heterobifunctional compounds; endogenous in cells; host or cells: Calu-1
test parameters: 40 nM, 16 hours
metric name: inhibition at 0.04 µM

Examples with answers:
{"molecule": "[2H]C([2H])([2H])Nc1ccc(C(=O)Nc2cc(C)on2)c(NC2CCN(C(=O)CN3CCN(c4ccc(Nc5ncc6c(C)c(C(C)=O)c(=O)n(C7CCCC7)c6n5)nc4)CC3)CC2)n1", "inhibition at 0.04 µM": "30 to 50%"}
{"molecule": "CNc1ccc(C(=O)Nc2ccc(N(C)C)nn2)c(NC2CC3(CC(NC(=O)N4CCN(c5ccc(Nc6ncc7c(C)c(C(C)=O)c(=O)n(C8CCCC8)c7n6)nc5)CC4)C3)C2)n1 (centres unmarked)", "inhibition at 0.04 µM": "< 30%"}
{"molecule": "CNc1ccc(C(=O)Nc2ccc3ncn(C)c3n2)c(NCCCCCNC(=O)CN2CCN(c3ccc(Nc4ncc5c(C)c(C(C)=O)c(=O)n(C6CCCC6)c5n4)nc3)CC2)n1", "inhibition at 0.04 µM": "50 to 80%"}
{"molecule": "CNc1ccc(C(=O)Nc2cccc(C3CC3)n2)c(NC2CC(NC(=O)CN3CCN(c4ccc(Nc5ncc6c(C)c(C(C)=O)c(=O)n(C7CCCC7)c6n5)nc4)CC3)C2)n1 (centres unmarked)", "inhibition at 0.04 µM": "30 to 50%"}
{"molecule": "CNc1ccc(C(=O)Nc2nc(C3CC3)c(C)s2)c(NCCCCCNC(=O)CN2CCN(c3ccc(Nc4ncc5c(C)c(C(C)=O)c(=O)n(C6CCCC6)c5n4)nc3)CC2)n1", "inhibition at 0.04 µM": "50 to 80%"}
{"molecule": "CC(=O)c1c(C)c2cnc(Nc3ccc(N4CCN(CC(=O)NC5CC6(C5)CC(Nc5nc(C)ccc5C(=O)Nc5cccc(C7CC7)n5)C6)CC4)cn3)nc2n(C2CCCC2)c1=O (centres unmarked)", "inhibition at 0.04 µM": "< 30%"}
{"molecule": "CNc1ccc(C(=O)Nc2ccc(N(C)C)nn2)c(NC2CN(C(=O)CCN3CCN(c4ccc(Nc5ncc6c(C)c(C(C)=O)c(=O)n(C7CCCC7)c6n5)nc4)CC3)C2)n1", "inhibition at 0.04 µM": "50 to 80%"}
{"molecule": "CNc1ccc(C(=O)Nc2ccc(N(C)C)nn2)c(NC2CCC(CCNC(=O)CN3CCN(c4ccc(Nc5ncc6c(C)c(C(C)=O)c(=O)n(C7CCCC7)c6n5)nc4)CC3)C2)n1 (centres unmarked)", "inhibition at 0.04 µM": "50 to 80%"}
{"molecule": "CNc1ccc(C(=O)Nc2ccc(N(C)C)nn2)c(NC2CCN(CCNC(=O)CN3CCN(c4ccc(Nc5ncc6c(C)c(C(C)=O)c(=O)n(C7CCCC7)c6n5)nc4)CC3)C2)n1 (centres unmarked)", "inhibition at 0.04 µM": "30 to 50%"}
{"molecule": "CNc1ccc(C(=O)Nc2cc(C)n(C(C)C)n2)c(NC2CC3(CC(NC(=O)CN4CCN(c5ccc(Nc6ncc7c(C)c(C(C)=O)c(=O)n(C8CCCC8)c7n6)nc5)CC4)C3)C2)n1 (centres unmarked)", "inhibition at 0.04 µM": "30 to 50%"}

So for CNc1ccc(C(=O)Nc2ccc(C)c(C3CC3)n2)c(NCCCCCCCNC(=O)CN2CCN(c3ccc(Nc4ncc5c(C)c(C(C)=O)c(=O)n(C6CCCC6)c5n4)nc3)CC2)n1 , the logged inhibition at 0.04 µM turned out to be 50 to 80%

* * *

target of assay: CDK4 (Homo sapiens, UniProt P11802+Q16531)
run description: CDK4 percentage degradation in Calu-1 cells (Table 6)
Assay type: cell-based
Set-up: Cells that express cyclin D1-3 and CDK4/6 proteins were treated with heterobifunctional compounds; endogenous in cells; host or cells: Calu-1
test parameters: 40 nM, 16 hours
metric name: inhibition at 0.04 µM

{"compound": "CNc1ccc(C(=O)Nc2ccc(N(C)C)nn2)c(N2CCC(CCNC(=O)CN3CCN(c4ccc(Nc5ncc6c(C)c(C(C)=O)c(=O)n(C7CCCC7)c6n5)nc4)CC3)CC2)n1", "target of assay": "CDK4 (Homo sapiens, UniProt P11802+Q16531)", "inhibition at 0.04 µM": "< 30%"}

The compound identified as CC(=O)c1c(C)c2cnc(Nc3ccc(N4CCN(CC(=O)NC5CC6(C5)CC(Nc5nc(C)ccc5C(=O)Nc5cn(C)c(C7CC7)n5)C6)CC4)cn3)nc2n(C2CCCC2)c1=O (stereo not drawn) registered its inhibition at 0.04 µM at 30 to 50%

Note to self: inhibition at 0.04 µM recorded for CNc1ccc(C(=O)Nc2ccc(N(C)C)nn2)c(NC2CCC3(C2)CN(C(=O)CCN2CCN(c4ccc(Nc5ncc6c(C)c(C(C)=O)c(=O)n(C7CCCC7)c6n5)nc4)CC2)C3)n1 (stereo not drawn) was 50 to 80%

* * *

target of assay: CDK4 (Homo sapiens, UniProt P11802+Q16531)
run description: CDK4 percentage degradation in Calu-1 cells (Table 6)
Format: cell-based
Design: Cells that express cyclin D1-3 and CDK4/6 proteins were treated with heterobifunctional compounds; endogenous in cells; host or cells: Calu-1
test parameters: 200 nM, 16 hours
metric name: inhibition at 0.2 µM

Record excerpt, results attached:
{"molecule": "CC(=O)c1c(C)c2cnc(Nc3ccc(N4CCN(CC(=O)NC5CC6(C5)CC(Nc5cc(Cl)ccc5C(=O)Nc5cc(C)on5)C6)CC4)cn3)nc2n(C2CCCC2)c1=O (centres unmarked)", "inhibition at 0.2 µM": "30 to 50%"}
{"molecule": "CNc1ccc(C(=O)Nc2ccc(N(C)C)nn2)c(NC2CCN(C(=O)CN3CCN(c4ccc(Nc5ncc6c(C)c(C(C)=O)c(=O)n(C7CCCC7)c6n5)nc4)CC3)CC2)n1", "inhibition at 0.2 µM": "50 to 80%"}
{"molecule": "[2H]C([2H])([2H])Nc1ccc(C(=O)Nc2ccc(N(C)C)nn2)c(NC2CC3(C2)CN(C(=O)C(F)(F)CN2CCN(c4ccc(Nc5ncc6c(C)c(C(C)=O)c(=O)n(C7CCCC7)c6n5)nc4)CC2)C3)n1", "inhibition at 0.2 µM": "50 to 80%"}
{"molecule": "COc1ccc(NC(=O)c2ccc(C)nc2NCCCCCCCNC(=O)CN2CCN(c3ccc(Nc4ncc5c(C)c(C(C)=O)c(=O)n(C6CCCC6)c5n4)nc3)CC2)nn1", "inhibition at 0.2 µM": "> 80%"}

Consider the record given below.
Please fill in: inhibition at 0.2 µM reported for CC(=O)c1c(C)c2cnc(Nc3ccc(N4CCN(CC(=O)NCCCCCNc5nc(C)ccc5C(=O)Nc5ccc(N(C)C)nn5)CC4)cn3)nc2n(C2CCCC2)c1=O = 50 to 80%
